Would you kindly list pEC50 for each of these binders?
biological target: Mouse LRP-8 expressed on HEK293 cells (mouse) (UniProt Q924X6); test: mLRP8 cell binding
The quantity pEC50 is defined as the negative base-10 logarithm of the molar concentration.

Exercise: State the recorded pEC50 for this entry: humanized ML199-11H1.5B2VH.1/VL.1b (antibody, V domains shown) VH: EVQLVESGGGLVKPGGSLRLSCAASRFTFSNYGMSWVRQAPGKGLEWVSTISSGGRYTYYPDSVKGRFTISRDNAKNSLYLQMNSLRAEDTAVYYCARDYLYAMDYWGQGTTVTVSS VL: DVVMTQSPLSLPVTPGEPASISCRSSQSLVYSNGNTYLHWYLQKPGQSPQVLIYKVSNRFSGVPDRFSGSGSGTDFTLKISRVEAEDVGVYYCSQSTHVPLTFGQGTKLEIK
Solution: 8.10

Exercise: Follow-up item: humanized ML199-11H1.5B2VH.1a/VL.1 (antibody, V domains shown) VH: EVQLVESGGGLVKPGGSLRLSCAASRFTFSNYGMSWVRQAPGKGLEWVATISSGGRYTYYPDSVKGRFTISRDNAKNSLYLQMNSLRAEDTAVYYCARDYLYAMDYWGQGTTVTVSS VL: DIVMTQSPLSLPVTPGEPASISCRSSQSLVYSNGNTYLHWYLQKPGQSPQLLIYKVSNRFSGVPDRFSGSGSGTDFTLKISRVEAEDVGVYYCSQSTHVPLTFGQGTKLEIK
Solution: 8.17

Exercise: Follow-up item: humanized ML199-11H1.5B2VH.1/VL.1a (antibody, V domains shown) VH: EVQLVESGGGLVKPGGSLRLSCAASRFTFSNYGMSWVRQAPGKGLEWVSTISSGGRYTYYPDSVKGRFTISRDNAKNSLYLQMNSLRAEDTAVYYCARDYLYAMDYWGQGTTVTVSS VL: DVVMTQSPLSLPVTPGEPASISCRSSQSLVYSNGNTYLHWYLQKPGQSPQVLMYKVSNRFSGVPDRFSGSGSGTDFTLKISRVEAEDVGVYFCSQSTHVPLTFGQGTKLEIK
Solution: 7.87
